- Tested on: MTT (mouse pheochromocytoma)
- PROCEDURE DETAILS: efficacy (maximal response) relative to doxorubicin = -100% and DMSO = 0%; higher = less inhibition of viability
- CONDITION PARAMETERS: (24 or 48 h)
Counter-ions that a name gives are not always drawn.
The following molecules are listed with their measured efficacy values.
# number only, unit % dropped from output

These recorded examples may help you get a feel for the data.
CCC(C(=O)O)C1OC(C(C)C(O)C(C)C(=O)C(CC)C2OC3(C=CC(O)C4(CCC(C)(C5CCC(O)(CC)C(C)O5)O4)O3)C(C)CC2C)C(C)CC1C (stereo not drawn) ... -46.7
CCOc1ccc(/N=N/c2ccc(N)cc2N)cc1 [Ethoxazene hydrochloride] ... -57.4
C=C1C(=O)O[C@@H]2[C@@H]1CC/C(C)=C\CC[C@@]1(C)O[C@H]21 [Parthenolide] ... -104

Task: Return reported efficacy; argument: "[Zn++].[O-]N1\C=C/C=C\C1=S.[O-]N2\C=C/C=C\C2=S"
Output: -90.6

Task: Query CCCCCCCCCCCCCCCC[N+](C)(C)C [Cetyltrimethylammonium bromide] next
Output: -89.1
